# system under test: T1, human IL1RAP (hu-IL1RAP) on human cells (human, UniProt Q9NPH3 21-570)
# T1 sequence: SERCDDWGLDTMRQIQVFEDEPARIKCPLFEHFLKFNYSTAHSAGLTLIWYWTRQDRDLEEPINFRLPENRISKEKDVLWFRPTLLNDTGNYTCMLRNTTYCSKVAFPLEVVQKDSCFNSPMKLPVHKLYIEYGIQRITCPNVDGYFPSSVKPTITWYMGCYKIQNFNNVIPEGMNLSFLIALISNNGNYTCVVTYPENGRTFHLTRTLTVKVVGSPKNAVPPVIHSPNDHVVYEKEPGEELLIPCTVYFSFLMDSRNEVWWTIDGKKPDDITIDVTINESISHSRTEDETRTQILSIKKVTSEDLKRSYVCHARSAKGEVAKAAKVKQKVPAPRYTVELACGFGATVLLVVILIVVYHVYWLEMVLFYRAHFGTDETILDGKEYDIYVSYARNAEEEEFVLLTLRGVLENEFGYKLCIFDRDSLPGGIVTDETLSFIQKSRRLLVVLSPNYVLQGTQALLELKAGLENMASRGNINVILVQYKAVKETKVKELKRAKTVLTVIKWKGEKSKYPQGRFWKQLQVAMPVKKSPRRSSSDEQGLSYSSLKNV
# assay name: cell-based or functional assay

binder | HEK-Blue, IL-1β, IC50 (Fab)
K13/H3 Fab (VL-A51Y/W92I, VH-V51S) (Fab, V domains shown, Fab with 8xHis tag) VH: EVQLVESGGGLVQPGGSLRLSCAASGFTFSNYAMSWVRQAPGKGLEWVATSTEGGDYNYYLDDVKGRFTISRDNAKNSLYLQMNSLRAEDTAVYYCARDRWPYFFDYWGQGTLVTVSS VL: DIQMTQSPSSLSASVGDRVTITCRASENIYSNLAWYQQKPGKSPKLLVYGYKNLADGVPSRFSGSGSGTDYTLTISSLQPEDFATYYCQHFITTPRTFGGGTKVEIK | 0.898 nM
K10/H3 Fab (VL-A51Y, VH-V51S) (Fab, V domains shown, Fab with 8xHis tag) VH: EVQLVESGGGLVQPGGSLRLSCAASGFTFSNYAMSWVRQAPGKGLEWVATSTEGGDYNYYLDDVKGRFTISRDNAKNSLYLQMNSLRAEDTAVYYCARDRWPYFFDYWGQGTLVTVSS VL: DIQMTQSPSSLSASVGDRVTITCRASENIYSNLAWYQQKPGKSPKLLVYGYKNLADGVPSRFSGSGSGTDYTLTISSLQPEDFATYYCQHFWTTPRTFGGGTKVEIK | 0.642 nM
K10 Fab (VL A51Y) (Fab, V domains shown, Fab with 8xHis tag) VH: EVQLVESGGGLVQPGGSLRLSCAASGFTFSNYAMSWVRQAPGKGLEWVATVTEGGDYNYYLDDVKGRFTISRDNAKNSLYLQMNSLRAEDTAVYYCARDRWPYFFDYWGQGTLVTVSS VL: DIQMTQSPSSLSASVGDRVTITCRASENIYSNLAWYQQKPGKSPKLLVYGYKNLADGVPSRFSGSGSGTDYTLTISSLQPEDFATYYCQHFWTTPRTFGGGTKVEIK | 0.66 nM
K17/H2 Fab (VL-A51Y/W92K, VH-R96D) (Fab, V domains shown, Fab with 8xHis tag) VH: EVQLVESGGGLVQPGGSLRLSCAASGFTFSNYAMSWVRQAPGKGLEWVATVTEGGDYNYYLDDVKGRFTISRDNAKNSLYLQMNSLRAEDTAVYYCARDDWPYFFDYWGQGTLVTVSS VL: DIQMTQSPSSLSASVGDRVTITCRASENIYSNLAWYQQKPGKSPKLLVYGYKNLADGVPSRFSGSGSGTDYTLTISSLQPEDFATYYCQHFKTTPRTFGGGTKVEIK | 1.86 nM
Parent Fab (Fab of h11C5_C59Y/A43S) (Fab, V domains shown, Fab with 8xHis tag; also called parental Fab of h11C5_C59Y/A43S) VH: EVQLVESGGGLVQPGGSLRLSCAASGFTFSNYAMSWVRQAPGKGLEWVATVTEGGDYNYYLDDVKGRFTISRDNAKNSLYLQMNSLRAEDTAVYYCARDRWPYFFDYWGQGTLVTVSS VL: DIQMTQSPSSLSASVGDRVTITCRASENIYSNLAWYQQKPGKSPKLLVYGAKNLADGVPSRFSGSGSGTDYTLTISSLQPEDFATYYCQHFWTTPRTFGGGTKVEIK | 7.45 nM

Values were extracted from patent US20260015426A1.
